Source: patent US20180318473A1

Item-by-item account of IC50
System: MX-1 mammary tumor cells
assay.overview: Cytotoxic activity on MX-1 mammary tumor cells in culture
details: read-out: Cytotoxicity on MX-1, IC50; MX-1 mammary tumor cells in culture; drug itself
property.label: IC50 (µM)

>>> readout_value("CCc1c2c(nc3ccc(O)cc13)-c1cc3c(c(=O)n1C2)COC(=O)[C@]3(O)CC [Compound 6]")
267
>>> readout_value("CCC1(OC(=O)C(C)C)C(=O)OCc2c1cc1n(c2=O)Cc2cc3cc(OC(=O)C(C)C)ccc3nc2-1 (stereo not shown) [Compound 9]")
23
>>> readout_value("CCCCCC(=O)Oc1ccc2nc3c(cc2c1)Cn1c-3cc2c(c1=O)COC(=O)[C@@]2(CC)OC(=O)CCCCC [Compound 10, CAMPTOTHECIN 10,20-DI O HEXONATE]")
8
>>> readout_value("CC(=O)OC1C(=O)C2(C)C(O)CC3OCC3(OC(C)=O)C2C(OC(=O)c2ccccc2)C2(O)CC(OC(=O)C(OC(=O)c3ccccc3)C(NC(=O)c3ccccc3)c3ccccc3)C(C)=C1C2(C)C (stereo not shown) [Compound 1]")
30
